System: PDC KRAS tumor spheroids with HUVEC/MSC, viability;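 note: spheroids exposed to compounds for seven days before readout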
procedure.details: Anticancer human tumor 349418-098-R-PDC patient-derived lung adenocarcinoma cell line growth inhibition [KRAS2]; active = viability on the fitted dose curve at most 10% of control; inactive = the rest
condition.parameters: second compound 3.16 µM; first compound 0.01 µM
Parameter call: string, one of active, inactive

Cn1ncnc1[C@H]1c2n[nH]c(=O)c3cc(F)cc(c23)N[C@@H]1c1ccc(F)cc1 + CC1OCC2(CCN(c3cnc(Sc4ccnc(N)c4Cl)c(N)n3)CC2)C1N    inactive

Which outcome was entered for the compound CC(C)n1nc(-c2ccc3oc(N)nc3c2)c2c(N)ncnc21 + CNCc1ccccc1-c1csc(C(C)Nc2nc(C)nc3cc(OC)c(OC)cc23)c1 in this test?
active

Which outcome was entered for the compound CCN1CCN(Cc2ccc(Nc3ncc(F)c(-c4cc(F)c5nc(C)n(C(C)C)c5c4)n3)nc2)CC1 + C=CC(=O)N1CCN(c2nc(=O)n(-c3c(C)ccnc3C(C)C)c3nc(-c4c(O)cccc4F)c(F)cc23)C(C)C1 in this test?
inactive
